Below is a list of entries, each paired with its recorded IC50 value.
- Tested on: TYK2 pseudokinase (JH2); IFNα-stimulated HEK-Blue IFNα/β cells
- Test description: HEK-Blue IFNα/β reporter assay (STAT1-inducible SEAP) for profiling TYK2 pseudokinase (JH2) inhibition
- Type: cell-based
- Stated conditions: 1 ng/mL human recombinant IFNα, SEAP readout, read-out: IFNα (TYK2 inhibitory activity, IC50)
Measured property: IC50

molecule=[2H]C([2H])([2H])NC(=O)c1nnc(NC(=O)C2CC2)cc1Nc1cccc2c1N(C)Cc1c[nH]nc1-2 target_desc="TYK2 pseudokinase (JH2); IFNα-stimulated HEK-Blue IFNα/β cells" result="< 30 nM"
molecule="[2H]C([2H])([2H])NC(=O)c1nnc(NC(=O)NC)cc1Nc1nccc2c1N(C)[C@@H](C)c1cn(C)nc1-2 (single isomer, unassigned)" target_desc="TYK2 pseudokinase (JH2); IFNα-stimulated HEK-Blue IFNα/β cells" result="< 30 nM"
molecule=CNC(=O)c1nnc(Nc2cc(C)nc(C)n2)cc1Nc1cccc2c1N(C)Cc1cn(C)nc1-2 target_desc="TYK2 pseudokinase (JH2); IFNα-stimulated HEK-Blue IFNα/β cells" result="< 30 nM"
molecule=[2H]C([2H])([2H])NC(=O)c1cnc(Nc2cc(C)nc(C)n2)cc1Nc1cccc2c1N(C)Cc1cn(C)nc1-2 target_desc="TYK2 pseudokinase (JH2); IFNα-stimulated HEK-Blue IFNα/β cells" result="< 30 nM"
molecule=[2H]C([2H])([2H])NC(=O)c1cnc(NC(=O)C2CC2)cc1Nc1cccc2c1N(C)Cc1cnn(C)c1-2 target_desc="TYK2 pseudokinase (JH2); IFNα-stimulated HEK-Blue IFNα/β cells" result="30 to 300 nM"
molecule=[2H]C([2H])([2H])NC(=O)c1cnc(Nc2ccc(F)cn2)cc1Nc1cccc2c1N(C)Cc1cn(C)nc1-2 target_desc="TYK2 pseudokinase (JH2); IFNα-stimulated HEK-Blue IFNα/β cells" result="< 30 nM"
molecule="CNC(=O)c1nnc(NC(=O)C2CC2)cc1Nc1cccc2c1OC(C)c1cn(C)nc1-2 (stereo not shown)" target_desc="TYK2 pseudokinase (JH2); IFNα-stimulated HEK-Blue IFNα/β cells" result="> 1000 nM"

* * *

- System: IL-2-stimulated HEK-Blue IL-2 reporter cells
- Test description: HEK-Blue IL-2 reporter assay (STAT5-inducible SEAP) for determining selectivity
- Format: cell-based
- Stated conditions: 4 ng/mL human recombinant IL-2, 24 hours
Measured property: IC50

compound="Cn1cc2c(n1)-c1cccc(Nc3cc(NC(=O)C4CC4)nc4[nH]n(C)c(=O)c34)c1OC2 [Compound 88]" result="> 1 µM"
compound="[2H]C([2H])([2H])NC(=O)c1nnc(Nc2ccc(F)cn2)cc1Nc1cccc2c1OCc1cn(C)nc1-2 [Compound 5]" result="> 1 µM"
compound="[2H]C([2H])([2H])NC(=O)c1nnc(NC(=O)NC)cc1Nc1nccc2c1N(C)[C@@H](C)c1cn(C)nc1-2 (single isomer, unassigned) [Compound 80]" result="> 1 µM"
compound="CNC(=O)c1nnc(Nc2ccc(F)cn2)cc1Nc1cccc2c1N(C)Cc1cn(C)nc1-2 [Compound 12]" result="> 1 µM"
compound="[2H]C([2H])([2H])NC(=O)c1cnc(NC(=O)NC)cc1Nc1cccc2c1N(C)Cc1cn(C)nc1-2 [Compound 25]" result="> 1 µM"
compound="CNC(=O)c1nnc(Nc2cc(C)nc(C)n2)cc1Nc1cccc2c1N(C)Cc1cn(C)nc1-2 [Compound 34]" result="0.03 to 0.3 µM"
compound="[2H]C([2H])([2H])NC(=O)c1cnc(NC(=O)C2(O)CC2)cc1Nc1cccc2c1N(C)Cc1cn(C)nc1-2 [Compound 21]" result="> 1 µM"
compound="[2H]C([2H])([2H])NC(=O)c1nnc(NC(=O)C2CC2)cc1Nc1cccc2c1N(C)C([2H])([2H])c1ccnn1-2 [Compound 58]" result="> 1 µM"
compound="[2H]C([2H])([2H])NC(=O)c1nnc(NC(=O)C2CC2)cc1Nc1cccc2c1N(C)Cc1cn(C([2H])([2H])[2H])nc1-2 [Compound 20]" result="0.3 to 1 µM"
compound="CNC(=O)c1nnc(Nc2ccc(F)cn2)cc1Nc1cccc2c1OCc1cn(C3COC3)nc1-2 [Compound 3]" result="0.3 to 1 µM"
compound="[2H]C([2H])([2H])NC(=O)c1cnc(NC(=O)C2CC2)cc1Nc1cccc2c1N(C)C([2H])([2H])c1cc(C)nn1-2 [Compound 57]" result="> 1 µM"
compound="[2H]C([2H])([2H])NC(=O)c1cnc(NC(=O)C2CC2)cc1Nc1cccc2c1N(C)C([2H])([2H])c1ccnn1-2 [Compound 59]" result="> 1 µM"
compound="[2H]C([2H])([2H])NC(=O)c1cnc(NC(=O)C2CC2)cc1Nc1cccc2c1N(C)Cc1cn(C([2H])([2H])[2H])nc1-2 [Compound 19]" result="> 1 µM"
compound="[2H]C([2H])([2H])NC(=O)c1nnc(NC(=O)C2CC2)cc1Nc1cccc2c1N(C)Cc1cc(C)nn1-2 [Compound 52]" result="> 1 µM"
compound="[2H]C([2H])([2H])NC(=O)c1nnc(NC(=O)C2CC2)cc1Nc1nccc2c1N(C)Cc1cn(C)nc1-2 [Compound 65]" result="> 1 µM"

* * *

- System: TYK2 pseudokinase (JH2); IFNα-stimulated HEK-Blue IFNα/β cells
- Test description: HEK-Blue IFNα/β reporter assay (STAT1-inducible SEAP) for profiling TYK2 pseudokinase (JH2) inhibition
- Type: cell-based
- Stated conditions: 1 ng/mL human recombinant IFNα, SEAP readout, read-out: IFNα (TYK2 inhibitory activity, IC50)
Below is a list of entries, each paired with its recorded IC50 value.
Measured property: IC50

compound="[2H]C([2H])([2H])NC(=O)c1cnc(N2CCN(C(C)C)C2=O)cc1Nc1cccc2c1N(C)Cc1cn(C)nc1-2 [Compound 61]" measured_property=IC50 result="30 to 300 nM"
compound="[2H]C([2H])([2H])NC(=O)c1cnc(NC(=O)C2CC2)cc1Nc1cccc2c1N(C)Cc1cn(C3COC3)nc1-2 [Compound 29]" measured_property=IC50 result="< 30 nM"
compound="[2H]C([2H])([2H])NC(=O)c1cnc(NC(=O)C2CC2)cc1Nc1cccc2c1N(C)[C@@H](C)c1cn(C)nc1-2 (single isomer, unassigned) [Compound 30]" measured_property=IC50 result="< 30 nM"
compound="[2H]C([2H])([2H])NC(=O)c1nnc(Nc2ccc(F)cn2)cc1Nc1cccc2c1OCc1cn(C)nc1-2 [Compound 5]" measured_property=IC50 result="30 to 300 nM"
compound="[2H]C([2H])([2H])NC(=O)c1nnc(NC(=O)NC)cc1Nc1nccc2c1N(C)[C@H](C)c1cn(C)nc1-2 (single isomer, unassigned) [Compound 78]" measured_property=IC50 result="300 to 1000 nM"
compound="[2H]C([2H])([2H])NC(=O)c1cnc(NC(=O)C2CC2)cc1Nc1nccc2c1N(C)Cc1cc(C)nn1-2 [Compound 71]" measured_property=IC50 result="< 30 nM"
compound="[2H]C([2H])([2H])NC(=O)c1nnc(NC(=O)NC)cc1Nc1nccc2c1N(C)C([2H])([2H])c1cn(C)nc1-2 [Compound 74]" measured_property=IC50 result="< 30 nM"
compound="CNC(=O)c1nnc(Nc2ccc(F)cn2)cc1Nc1cccc2c1N(C)Cc1cn(C)nc1-2 [Compound 12]" measured_property=IC50 result="< 30 nM"
compound="[2H]C([2H])([2H])NC(=O)c1nnc(NC(=O)C2CC2)cc1Nc1cccc2c1N(C)Cc1cc(C(F)(F)F)nn1-2 [Compound 54]" measured_property=IC50 result="300 to 1000 nM"
compound="[2H]C([2H])([2H])NC(=O)c1cnc(Nc2cc(C)nc(C)n2)cc1Nc1cccc2c1OCc1cn(C)nc1-2 [Compound 9]" measured_property=IC50 result="30 to 300 nM"
compound="Cn1cc2c(n1)-c1cccc(Nc3cc(Nc4ccc(F)cn4)nnc3C(N)=O)c1OC2 [Compound 8]" measured_property=IC50 result="30 to 300 nM"
compound="[2H]C([2H])([2H])NC(=O)c1cnc(NC(=O)C2CC2)cc1Nc1cccc2c1N(C)Cc1cn(C(C)C)nc1-2 [Compound 37]" measured_property=IC50 result="30 to 300 nM"
compound="[2H]C([2H])([2H])NC(=O)c1cnc(NC(=O)C2CC2)cc1Nc1cccc2c1OCc1cn(C)nc1-2 [Compound 6]" measured_property=IC50 result="30 to 300 nM"
compound="CN1Cc2cn(C)nc2-c2cccc(Nc3cc(NC(=O)C4CC4)ncc3C(N)=O)c21 [Compound 17]" measured_property=IC50 result="< 30 nM"

Data credit: patent US12122785B2
